Data origin, for the record: patent US8022177B2

Tgt: T1, Cav3.1 (Homo sapiens, UniProt O43497)
T1 construct: expressed in transfected cells; host or cells: HEK-293, stably transfected
Measurement Description: Whole-cell patch clamp of Cav3.1 dependent LVA calcium current in HEK-293/Cav3.1 cells transiently transfected with γ subunits (Example 1)
Assay type: cell-based
Reported Conditions: Table 2
Readout Name: Activation V 0.5

Requested read-out: Activation V 0.5. Entry: γ6L: rat calcium channel γ6 subunit, long isoform (AF361343), SEQ ID NO:48 (protein, listed as Rattus norvegicus) MMWSNFFMQEEDRRRTAVGRRRAQEQQNLGLTPEREGKIKLGLLVAIVGATLAVLAVGTEFWVELNTYKTNGSAVCEAAHLGLWKVCIKRLWQADVPAGRETCGPAELPGEANCTYFKFFTTGENAHIFQRTTKKEVNLAAAVIAVLGLTAMALGCLCVIMVLSKGAEFLLRLGAVCFGLSGLLLFVSLEVFRHSVRALLQGVNPETPPAPRLAYEYSWSLGCGVGAGLILLLGGVCFLLLTLPSWPWRSLCPKRGGPTA
−36.3 ± 6.2 (n = 4) mV
